B1: PAIP1 peptide 126-141 (Polyadenylate-binding protein-interacting protein 1), 16-mer library wild type / PABPC1 PABC (PABPC1 PABC domain, residues 544-623) (parent)
chain 1: SKLSVNAPEFYPSGYS
chain 2: PLTASMLASAPPQEQKQMLGERLFPLIQAMHPTLAGKITGMLLEIDNSELLHMLESPESLRSKVDEAVAVLQAHQAKEAA

Variants of: B1
Assay: proteomic peptide phage display deep mutational scan (ProP-PD DMS): M13 P8 16-mer library selected against immobilised GST-tagged bait for four days (rounds), NGS of the eluted pools per day and pseudo-replica
Conditions: with PABPC1 PABC (PABPC1 PABC domain, residues 544-623); bait immobilised on MaxiSorp plates (10 µg), library pre-cleared on GST, 2 h binding at 4 °C, five washes; one round per day, days 1-4; value from days 2 and 3; keep out of graded; scale: average fractional NGS count over selection days 2 and 3
Each item that follows carries a reported screen value.
Kindly provide the number alone.

1) chain 1 Y15M: 4.17e-05

Prompt line: Return screen value for the following variant: chain 1 S4L
Response line: 0.000589

Prompt line: Return screen value for the following variant: chain 1 P8S
Response line: 0.000241

Prompt line: Return screen value for the following variant: chain 1 P8K
Response line: 8.32e-05

Prompt line: Return screen value for the following variant: chain 1 V5P
Response line: 0.00187
